// data source = the supplement of paper PMC10567573

Kindly state protein stability index for each of the entries shown.
B1: NETO1 (parent)
chain: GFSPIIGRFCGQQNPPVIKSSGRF

Variants of: B1
Assay: protein stability index of a GFP-peptide fusion (GPS, HEK-293T) (PSI 1-6); higher = more stable;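 further: lentivirally expressed fusions sorted by FACS into six bins by GFP to DsRed ratio, PSI derived from sequencing read proportions per bin multiplied by bin number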
Conditions: c terminus: a fixed tail appended
// print number alone

Requested read-out: protein stability index. Entry: GFSPIISRFCGQQNPPVIKSSGRF [G7S]
2.3

Do the same for GFFPIIGRFCGQQNPPVIKSSGRF [S3F] please
2.56

Do the same for GFSPIIGRFCGQQNPNVIKSSGRF [P16N] please
1.73

Do the same for GFSPIIGRFCGQQNPPVIKSKGRF [S21K] please
2.22

Do the same for GFSPIIGRFCGQQNPPVIKSSGVF [R23V] please
2.22

Do the same for GFSPIIGRFCGQQNPPNIKSSGRF [V17N] please
2.5

Do the same for GFSPIIGEFCGQQNPPVIKSSGRF [R8E] please
3.19

Do the same for GFTPIIGRFCGQQNPPVIKSSGRF [S3T] please
2.4

Do the same for GFSPIIGRFCGQQNPLVIKSSGRF [P16L] please
1.59

Do the same for GFSEIIGRFCGQQNPPVIKSSGRF [P4E] please
2.33
